- tgt: hP2X2/3 (Homo sapiens, UniProt P56373+Q9UBL9)
- Sequence (P56373 whole entry): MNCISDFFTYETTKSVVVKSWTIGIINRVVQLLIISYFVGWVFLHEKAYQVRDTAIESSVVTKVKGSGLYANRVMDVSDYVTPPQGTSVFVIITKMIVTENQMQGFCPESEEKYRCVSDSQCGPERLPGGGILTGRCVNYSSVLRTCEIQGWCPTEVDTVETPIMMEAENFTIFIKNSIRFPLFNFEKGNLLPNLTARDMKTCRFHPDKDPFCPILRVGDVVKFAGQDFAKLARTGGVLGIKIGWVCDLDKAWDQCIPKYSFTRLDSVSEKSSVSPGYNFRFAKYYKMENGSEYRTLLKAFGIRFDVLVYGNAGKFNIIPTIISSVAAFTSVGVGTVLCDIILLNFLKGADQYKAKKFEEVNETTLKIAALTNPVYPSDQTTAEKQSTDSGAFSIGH
- Sequence (Q9UBL9 whole entry): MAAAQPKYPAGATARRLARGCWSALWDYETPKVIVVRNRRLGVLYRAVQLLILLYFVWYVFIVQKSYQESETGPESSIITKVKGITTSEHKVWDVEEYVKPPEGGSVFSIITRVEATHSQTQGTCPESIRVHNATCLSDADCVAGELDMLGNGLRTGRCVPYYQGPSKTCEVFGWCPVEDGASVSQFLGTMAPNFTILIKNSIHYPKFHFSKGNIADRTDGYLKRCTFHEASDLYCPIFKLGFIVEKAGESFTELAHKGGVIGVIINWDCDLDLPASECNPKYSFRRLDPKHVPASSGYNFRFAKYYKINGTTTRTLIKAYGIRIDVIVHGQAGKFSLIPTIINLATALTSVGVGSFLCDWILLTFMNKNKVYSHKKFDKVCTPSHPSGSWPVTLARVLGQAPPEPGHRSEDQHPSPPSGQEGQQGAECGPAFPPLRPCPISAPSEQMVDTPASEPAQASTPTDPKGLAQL
- assay: FLIPR intracellular calcium assay, hP2X2/3
- measurement.conditions: human P2X2/3-TRex293 cells, agonist at EC75
pIC50: −log10 of the molar value.
property: pIC50

What does the data say about its pIC50? Entry: CC(C1CC1)n1ncc2nc(N3CCN(C(N)=O)CC3)nc(N[C@@H](c3cnc4ccccc4c3)C3CC3)c21 (stereo partly drawn) [Example 86]
7.00 to 9.00

New cases:
For the molecule shown here, CCC(C)n1ncc2nc(N3CCN(C(=N)N)CC3)nc(N[C@@H](c3cnc4ccccc4c3)C3CC3)c21 (stereo partly drawn) [Example 112] , give the reported pIC50.
7.00 to 9.00

Param item = CC[C@H](C)n1ncc2nc(N3CCN(C(N)=O)CC3)nc(NC(c3cnc4ccccc4n3)C3CC3)c21 (stereo partly drawn) [Example 83] ; retrieve measured pIC50.
5.00 to 6.00

Item under review: CCC(CC)n1ncc2nc(N3CCN(C(C)=O)CC3)nc(N[C@@H](c3cnc4ccccc4c3)C3CC3)c21 [Example 44] . Reported pIC50?
7.00 to 9.00

Please report the recorded pIC50 for CCOc1ccc(C(C)Nc2nc(N3CCN(C(C)=O)CC3)nc3cnn(C(CC)CC)c23)cc1 (stereo not drawn) [Example 30] .
5.00 to 6.00

Using the record for CC(=O)N1CCN(c2nc(N[C@H](C)c3cnc4ccccc4c3)c3c(cnn3C3CCCC3)n2)CC1 [Example 25] , report its pIC50.
5.00 to 6.00

Recorded pIC50 for CCC(CC)n1ncc2nc(N3CCN(C(C)=O)CC3)nc(N[C@H](C)c3cnc4ccccc4c3)c21 [Example 22] , please?
7.00 to 9.00

Quick one: pIC50 for C[C@@H](Nc1nc(N2CCN(C)C(=O)C2)nc2cnn(C3CCC3)c12)c1cnc2ccccc2c1 [Example 49] ?
5.00 to 6.00

Form field: reported pIC50 of CCC(C)n1ncc2nc(N3CCN(C(C)=O)CC3)nc(NC(C)c3ccc(-c4ccccc4)nc3)c21 (stereo not drawn) [Example 52]
5.00 to 6.00
